Target: HSA (Homo sapiens, UniProt P02768)
Sequence (P02768 25-609): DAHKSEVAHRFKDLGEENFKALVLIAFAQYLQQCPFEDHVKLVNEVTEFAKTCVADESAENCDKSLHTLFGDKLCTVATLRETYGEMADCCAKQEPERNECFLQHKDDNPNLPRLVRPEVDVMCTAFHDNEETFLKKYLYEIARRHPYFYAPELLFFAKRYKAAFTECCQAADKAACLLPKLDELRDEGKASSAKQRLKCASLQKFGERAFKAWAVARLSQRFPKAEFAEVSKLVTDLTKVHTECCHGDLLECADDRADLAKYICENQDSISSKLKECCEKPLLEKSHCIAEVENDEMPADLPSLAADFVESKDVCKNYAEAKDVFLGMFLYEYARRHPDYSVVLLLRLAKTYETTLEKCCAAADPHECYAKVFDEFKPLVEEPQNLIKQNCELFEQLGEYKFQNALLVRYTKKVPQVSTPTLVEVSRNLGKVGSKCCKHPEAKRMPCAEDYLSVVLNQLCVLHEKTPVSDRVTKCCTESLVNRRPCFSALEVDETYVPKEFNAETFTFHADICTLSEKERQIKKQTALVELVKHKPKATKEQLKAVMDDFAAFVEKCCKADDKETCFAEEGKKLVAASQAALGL
Assay: HSA binding by RIAC method (gel filtration, apparent molecular weight)
Format: in vitro ADME
Conditions: HSA binding as apparent molecular weight, 700 μM HSA in PBS mobile phase
Property: HSA

compound="C[C@@H](O)[C@H](NC(=O)C1CSSCC(NC(=O)C(Cc2ccccc2)NC(=O)CNC(=O)CNC(=O)[C@@H](CC(=O)O)NC(=O)C(CC(=O)O)NC(=O)[C@@H](CNC(=O)CN2CCN(CC(=O)O)CCN(CC(=O)O)CCN(CC(=O)O)CC2)NC(=O)C[N+](C)(C)Cc2ccc([Si](F)(C(C)(C)C)C(C)(C)C)cc2)C(=O)N[C@@H](Cc2ccc(O)cc2)C(=O)NC(Cc2c[nH]c3ccccc23)C(=O)N[C@@H](CCCCN)C(=O)N[C@@H]([C@@H](C)O)C(=O)N1)C(=O)O (some centres unmarked) [[Ga]24]" endpoint_result="8.77 kDa"
compound="C[C@@H](O)[C@H](NC(=O)C1CSSCC(NC(=O)C(Cc2ccccc2)NC(=O)CNC(=O)CNC(=O)CNC(=O)C(CC(=O)O)NC(=O)[C@@H](CC(=O)O)NC(=O)C(CCCCN)NC(=O)[C@@H](CNC(=O)C[N+](C)(C)Cc2ccc([Si](F)(C(C)(C)C)C(C)(C)C)cc2)NC(=O)CN2CCN(CC(=O)O)CCN(CC(=O)O)CCN(CC(=O)O)CC2)C(=O)N[C@@H](Cc2ccc(O)cc2)C(=O)NC(Cc2c[nH]c3ccccc23)C(=O)N[C@@H](CCCCN)C(=O)N[C@@H]([C@@H](C)O)C(=O)N1)C(=O)O (some centres unmarked) [[Ga]45]" endpoint_result="7.76 kDa"
compound="C[C@@H](O)[C@H](NC(=O)C1CSSCC(NC(=O)C(Cc2ccccc2)NC(=O)CNC(=O)CNC(=O)CNC(=O)C(CC(=O)O)NC(=O)[C@@H](CC(=O)O)NC(=O)C(CCCNC(N)=O)NC(=O)[C@@H](CNC(=O)C[N+](C)(C)Cc2ccc([Si](F)(C(C)(C)C)C(C)(C)C)cc2)NC(=O)CN2CCN(CC(=O)O)CCN(CC(=O)O)CCN(CC(=O)O)CC2)C(=O)N[C@@H](Cc2ccc(O)cc2)C(=O)NC(Cc2c[nH]c3ccccc23)C(=O)N[C@@H](CCCCN)C(=O)N[C@@H]([C@@H](C)O)C(=O)N1)C(=O)O (some centres unmarked) [[Ga]46]" endpoint_result="6.81 kDa"
compound="C[C@@H](O)[C@H](NC(=O)C1CSSCC(NC(=O)C(Cc2ccccc2)NC(=O)CNC(=O)CNC(=O)[C@@H](CC(=O)O)NC(=O)C(CC(=O)O)NC(=O)[C@@H](CNC(=O)CN2CCN(CC(=O)O)CCN(CC(=O)O)CCN(CC(=O)O)CC2)NC(=O)C(CN)NC(=O)c2ccc([Si](F)(C(C)(C)C)C(C)(C)C)cc2)C(=O)N[C@@H](Cc2ccc(O)cc2)C(=O)NC(Cc2c[nH]c3ccccc23)C(=O)N[C@@H](CCCCN)C(=O)N[C@@H]([C@@H](C)O)C(=O)N1)C(=O)O (some centres unmarked) [[Ga]19]" endpoint_result="21.17 kDa"
compound="C[C@@H](O)[C@H](NC(=O)C1CSSCC(NC(=O)C(Cc2ccccc2)NC(=O)CNC(=O)CNC(=O)CNC(=O)C(CC(=O)O)NC(=O)[C@@H](CC(=O)O)NC(=O)C(CNC(=O)CN2CCN(CC(=O)O)CCN(CC(=O)O)CCN(CC(=O)O)CC2)NC(=O)[C@@H](CN)NC(=O)CNC(=O)C[N+](C)(C)Cc2ccc([Si](F)(C(C)(C)C)C(C)(C)C)cc2)C(=O)N[C@@H](Cc2ccc(O)cc2)C(=O)NC(Cc2c[nH]c3ccccc23)C(=O)N[C@@H](CCCCN)C(=O)N[C@@H]([C@@H](C)O)C(=O)N1)C(=O)O (some centres unmarked) [[Ga]52]" endpoint_result="7.82 kDa"
compound="C[C@@H](O)[C@H](NC(=O)C1CSSCC(NC(=O)C(Cc2ccccc2)NC(=O)CNC(=O)CNC(=O)CNC(=O)C(CC(=O)O)NC(=O)[C@@H](CC(=O)O)NC(=O)C(CNC(=O)CN2CCN(CC(=O)O)CCN(CC(=O)O)CCN(CC(=O)O)CC2)NC(=O)[C@@H](CN)NC(=O)CNC(=O)CNC(=O)C[N+](C)(C)Cc2ccc([Si](F)(C(C)(C)C)C(C)(C)C)cc2)C(=O)N[C@@H](Cc2ccc(O)cc2)C(=O)NC(Cc2c[nH]c3ccccc23)C(=O)N[C@@H](CCCCN)C(=O)N[C@@H]([C@@H](C)O)C(=O)N1)C(=O)O (some centres unmarked) [[Lu]53]" endpoint_result="9.81 kDa"
compound="C[C@@H](O)[C@H](NC(=O)C1CSSCC(NC(=O)C(Cc2ccccc2)NC(=O)CNC(=O)CNC(=O)[C@@H](CCCN)NC(=O)C(CCCN)NC(=O)[C@@H](CNC(=O)CC[C@H](C(=O)O)N2CCN(CC(=O)O)CCN(CC(=O)O)CCN(CC(=O)O)CC2)NC(=O)C(CN)NC(=O)c2ccc([Si](F)(C(C)(C)C)C(C)(C)C)cc2)C(=O)N[C@@H](Cc2ccc(O)cc2)C(=O)NC(Cc2c[nH]c3ccccc23)C(=O)N[C@@H](CCCCN)C(=O)N[C@@H]([C@@H](C)O)C(=O)N1)C(=O)O (some centres unmarked) (natGa complex, metal not drawn) [[Ga]37]" endpoint_result="17.60 kDa"
compound="C[C@@H](O)[C@H](NC(=O)C1CSSCC(NC(=O)C(Cc2ccccc2)NC(=O)CNC(=O)CNC(=O)[C@@H](CC(=O)O)NC(=O)C(CC(=O)O)NC(=O)[C@@H](CNC(=O)CC[C@H](C(=O)O)N2CCN(CC(=O)O)CCN(CC(=O)O)CCN(CC(=O)O)CC2)NC(=O)C(CN)NC(=O)c2ccc([Si](F)(C(C)(C)C)C(C)(C)C)cc2)C(=O)N[C@@H](Cc2ccc(O)cc2)C(=O)NC(Cc2c[nH]c3ccccc23)C(=O)N[C@@H](CCCCN)C(=O)N[C@@H]([C@@H](C)O)C(=O)N1)C(=O)O (some centres unmarked) [[Ga]20]" endpoint_result="21.49 kDa"

* * *

Assay: Octanol-water distribution coefficient (logD pH 7.4) of the labeled tracer
Format: physicochemical
Settings: n-octanol/PBS pH 7.4, room temperature
List of LogDpH=7.4 values.
Property: LogDpH=7.4

compound="C[C@@H](O)[C@H](NC(=O)C1CSSCC(NC(=O)C(Cc2ccccc2)NC(=O)CNC(=O)CNC(=O)[C@@H](CC(=O)O)NC(=O)C(CC(=O)O)NC(=O)[C@@H](CNC(=O)c2ccc([Si](F)(C(C)(C)C)C(C)(C)C)cc2)NC(=O)CCC(C(=O)O)N2CCN(CC(=O)O)CCN(CC(=O)O)CCN(CC(=O)O)CC2)C(=O)N[C@@H](Cc2ccc(O)cc2)C(=O)NC(Cc2c[nH]c3ccccc23)C(=O)N[C@@H](CCCCN)C(=O)N[C@@H]([C@@H](C)O)C(=O)N1)C(=O)O (some centres unmarked) (natGa complex, metal not drawn) [[Ga]6]" endpoint_result=−2.15
compound="C[C@@H](O)[C@H](NC(=O)C1CSSCC(NC(=O)C(Cc2ccccc2)NC(=O)CNC(=O)CNC(=O)CNC(=O)C(CC(=O)O)NC(=O)[C@@H](CC(=O)O)NC(=O)C(CNC(=O)C[N+](C)(C)Cc2ccc([Si](F)(C(C)(C)C)C(C)(C)C)cc2)NC(=O)CN2CCN(CC(=O)O)CCN(CC(=O)O)CCN(CC(=O)O)CC2)C(=O)N[C@@H](Cc2ccc(O)cc2)C(=O)NC(Cc2c[nH]c3ccccc23)C(=O)N[C@@H](CCCCN)C(=O)N[C@@H]([C@@H](C)O)C(=O)N1)C(=O)O (some centres unmarked) [[Lu]44]" endpoint_result=−1.98
compound="C[C@@H](O)[C@H](NC(=O)C1CSSCC(NC(=O)C(Cc2ccccc2)NC(=O)CNC(=O)CNC(=O)CNC(=O)C(CC(=O)O)NC(=O)[C@@H](CC(=O)O)NC(=O)C(CCCCN)NC(=O)[C@@H](CNC(=O)C[N+](C)(C)Cc2ccc([Si](F)(C(C)(C)C)C(C)(C)C)cc2)NC(=O)CN2CCN(CC(=O)O)CCN(CC(=O)O)CCN(CC(=O)O)CC2)C(=O)N[C@@H](Cc2ccc(O)cc2)C(=O)NC(Cc2c[nH]c3ccccc23)C(=O)N[C@@H](CCCCN)C(=O)N[C@@H]([C@@H](C)O)C(=O)N1)C(=O)O (some centres unmarked) [[Ga]45]" endpoint_result=−2.10
compound="C[C@@H](O)[C@H](NC(=O)C1CSSCC(NC(=O)C(Cc2ccccc2)NC(=O)CNC(=O)CNC(=O)CNC(=O)C(CC(=O)O)NC(=O)[C@@H](CC(=O)O)NC(=O)C(CNC(=O)CN2CCN(CC(=O)O)CCN(CC(=O)O)CCN(CC(=O)O)CC2)NC(=O)[C@@H](CN)NC(=O)CNC(=O)C[N+](C)(C)Cc2ccc([Si](F)(C(C)(C)C)C(C)(C)C)cc2)C(=O)N[C@@H](Cc2ccc(O)cc2)C(=O)NC(Cc2c[nH]c3ccccc23)C(=O)N[C@@H](CCCCN)C(=O)N[C@@H]([C@@H](C)O)C(=O)N1)C(=O)O (some centres unmarked) [[Ga]52]" endpoint_result=−2.00
compound="C[C@@H](O)[C@H](NC(=O)C1CSSCC(NC(=O)C(Cc2ccccc2)NC(=O)CNC(=O)CNC(=O)[C@@H](CC(=O)O)NC(=O)C(CC(=O)O)NC(=O)[C@@H](CNC(=O)CN2CCN(CC(=O)O)CCN(CC(=O)O)CCN(CC(=O)O)CC2)NC(=O)C(CN)NC(=O)c2ccc([Si](F)(C(C)(C)C)C(C)(C)C)cc2)C(=O)N[C@@H](Cc2ccc(O)cc2)C(=O)NC(Cc2c[nH]c3ccccc23)C(=O)N[C@@H](CCCCN)C(=O)N[C@@H]([C@@H](C)O)C(=O)N1)C(=O)O (some centres unmarked) [[Ga]19]" endpoint_result=−2.11
compound="C[C@@H](O)[C@H](NC(=O)C1CSSCC(NC(=O)C(Cc2ccccc2)NC(=O)CNC(=O)CNC(=O)CNC(=O)C(CC(=O)O)NC(=O)[C@@H](CC(=O)O)NC(=O)C(CNC(=O)C[N+](C)(C)Cc2ccc([Si](F)(C(C)(C)C)C(C)(C)C)cc2)NC(=O)CN2CCN(CC(=O)O)CCN(CC(=O)O)CCN(CC(=O)O)CC2)C(=O)N[C@@H](Cc2ccc(O)cc2)C(=O)NC(Cc2c[nH]c3ccccc23)C(=O)N[C@@H](CCCCN)C(=O)N[C@@H]([C@@H](C)O)C(=O)N1)C(=O)O (some centres unmarked) [[Ga]44]" endpoint_result=−2.06
compound="C[C@@H](O)[C@H](NC(=O)C1CSSCC(NC(=O)C(Cc2ccccc2)NC(=O)CNC(=O)CNC(=O)CNC(=O)C(CC(=O)O)NC(=O)[C@@H](CC(=O)O)NC(=O)C(CNC(=O)CN2CCN(CC(=O)O)CCN(CC(=O)O)CCN(CC(=O)O)CC2)NC(=O)[C@@H](CN)NC(=O)C[N+](C)(C)Cc2ccc([Si](F)(C(C)(C)C)C(C)(C)C)cc2)C(=O)N[C@@H](Cc2ccc(O)cc2)C(=O)NC(Cc2c[nH]c3ccccc23)C(=O)N[C@@H](CCCCN)C(=O)N[C@@H]([C@@H](C)O)C(=O)N1)C(=O)O (some centres unmarked) [[Ga]51]" endpoint_result=−1.97
compound="C[C@@H](O)[C@H](NC(=O)C1CSSCC(NC(=O)C(Cc2ccccc2)NC(=O)CNC(=O)CNC(=O)CNC(=O)C(CC(=O)O)NC(=O)[C@@H](CC(=O)O)NC(=O)C(CNC(=O)CN2CCN(CC(=O)O)CCN(CC(=O)O)CCN(CC(=O)O)CC2)NC(=O)[C@@H](CN)NC(=O)CNC(=O)CNC(=O)C[N+](C)(C)Cc2ccc([Si](F)(C(C)(C)C)C(C)(C)C)cc2)C(=O)N[C@@H](Cc2ccc(O)cc2)C(=O)NC(Cc2c[nH]c3ccccc23)C(=O)N[C@@H](CCCCN)C(=O)N[C@@H]([C@@H](C)O)C(=O)N1)C(=O)O (some centres unmarked) [[Ga]53]" endpoint_result=−1.96
